Each recorded value in this set is attributed to ChEMBL document CHEMBL2073850.

Experimental system: OCT1 (Solute carrier family 22 member 1) (Homo sapiens, UniProt O15245)
Sequence (O15245 whole entry): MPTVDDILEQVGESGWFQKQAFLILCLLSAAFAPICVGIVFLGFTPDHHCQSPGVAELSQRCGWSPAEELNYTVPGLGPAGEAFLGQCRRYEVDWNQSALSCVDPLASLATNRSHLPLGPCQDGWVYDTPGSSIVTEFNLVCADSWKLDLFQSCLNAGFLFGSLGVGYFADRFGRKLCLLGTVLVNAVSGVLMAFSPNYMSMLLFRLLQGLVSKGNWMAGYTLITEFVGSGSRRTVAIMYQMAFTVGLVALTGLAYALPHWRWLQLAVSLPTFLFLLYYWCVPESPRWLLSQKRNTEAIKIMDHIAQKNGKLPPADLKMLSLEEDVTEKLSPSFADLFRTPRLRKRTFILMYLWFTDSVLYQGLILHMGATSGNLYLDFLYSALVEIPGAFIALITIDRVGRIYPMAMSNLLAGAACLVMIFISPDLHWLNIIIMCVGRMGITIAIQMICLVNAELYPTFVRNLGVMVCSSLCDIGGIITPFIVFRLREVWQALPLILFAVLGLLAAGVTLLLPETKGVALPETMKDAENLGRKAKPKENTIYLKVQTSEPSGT
Protocol summary: TP_TRANSPORTER: inhibition of TEA uptake (TEA: 5 uM, PGE2: 1000 uM) in OCT1-expressing S2 cells
Assay type: functional, cell-based
Set-up: scale not given: the % may be the effect or the level left
Protocol conditions: probe TEA, read-out: Activity
Assay metric: activity at 1000 µM (%)

| Chemical structure | Experimental system | Assay value |
| --- | --- | --- |
| CCCCC[C@H](O)/C=C/[C@H]1[C@H](O)CC(=O)[C@@H]1C/C=C\CCCC(=O)O | OCT1 (Solute carrier family 22 member 1) (Homo sapiens, UniProt O15245) | 31.4 |

---

Experimental system: OAT4 (Solute carrier family 22 member 11) (Homo sapiens, UniProt Q9NSA0)
Sequence (Q9NSA0 whole entry): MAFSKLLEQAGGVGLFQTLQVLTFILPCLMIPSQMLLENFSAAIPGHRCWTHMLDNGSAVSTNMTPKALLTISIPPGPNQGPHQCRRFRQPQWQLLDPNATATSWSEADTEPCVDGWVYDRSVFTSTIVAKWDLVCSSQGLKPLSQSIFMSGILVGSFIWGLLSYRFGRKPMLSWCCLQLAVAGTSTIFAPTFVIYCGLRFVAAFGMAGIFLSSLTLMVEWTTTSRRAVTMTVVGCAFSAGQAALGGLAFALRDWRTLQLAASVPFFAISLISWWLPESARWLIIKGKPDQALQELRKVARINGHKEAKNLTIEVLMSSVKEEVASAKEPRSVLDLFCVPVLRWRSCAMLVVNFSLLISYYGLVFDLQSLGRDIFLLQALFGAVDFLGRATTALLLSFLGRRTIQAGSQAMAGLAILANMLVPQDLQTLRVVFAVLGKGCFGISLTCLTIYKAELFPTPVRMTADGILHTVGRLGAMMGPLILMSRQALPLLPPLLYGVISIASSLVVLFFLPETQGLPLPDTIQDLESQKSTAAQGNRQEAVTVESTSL
Protocol summary: TP_TRANSPORTER: inhibition of ES uptake (ES: 0.05 uM, PGE2: 30 uM) in OAT4-expressing S2 cells
Assay type: functional, cell-based
Parameters: scale not given: the % may be the effect or the level left
Protocol conditions: probe ES, read-out: Activity
Assay metric: activity at 30 µM (%)

| Chemical structure | Experimental system | Assay metric | Assay value |
| --- | --- | --- | --- |
| CCCCC[C@H](O)/C=C/[C@H]1[C@H](O)CC(=O)[C@@H]1C/C=C\CCCC(=O)O | OAT4 (Solute carrier family 22 member 11) (Homo sapiens, UniProt Q9NSA0) | activity at 30 µM | 57 |
